Where these numbers come from: ChEMBL document CHEMBL3813700

- Species on record: Homo sapiens
- assay: Selectivity index, ratio of Ki for human 5-HT2A receptor to Ki for human 5-HT2B receptor
test_readout: Ratio Ki

smiles_notation: COc1ccc(CCN(CCCc2cccc(Br)c2)CCc2ccc3c(c2)OCO3)cc1OC
Ratio Ki: 7

smiles_notation: COc1ccc(CCN(CCCc2ccccc2Cl)CCc2ccc3c(c2)OCO3)cc1OC
Ratio Ki: 14

smiles_notation: COc1ccc(CCN(CCCc2cccc(I)c2)CCc2ccc3c(c2)OCO3)cc1OC
Ratio Ki: 9

smiles_notation: COc1ccc(CCN(CCCc2cccc(Cl)c2)CCc2ccc3c(c2)OCO3)cc1OC
Ratio Ki: 7

smiles_notation: COc1ccc(CCN(CCCc2ccccc2)CCc2ccc3c(c2)OCO3)cc1OC
Ratio Ki: 6

P = COc1ccc(CCN(CCCc2ccc(Cl)cc2)CCc2ccc3c(c2)OCO3)cc1OC
Q = COc1ccc(CCN(CCCc2ccc(F)cc2)CCc2ccc3c(c2)OCO3)cc1OC
R = COc1ccc(CCN(CCCc2ccccc2F)CCc2ccc3c(c2)OCO3)cc1OC
Prompt line: Could you please sort these 3 entries by Ratio Ki from high to low? Form field (ranking): labels in requested order.
Response line: R, Q, P
(R: 38, Q: 13, P: 7)

---

Consider the following pKi values measured on 5-hydroxytryptamine receptor 2B (Homo sapiens, UniProt P41595).
Sequence (P41595 whole entry): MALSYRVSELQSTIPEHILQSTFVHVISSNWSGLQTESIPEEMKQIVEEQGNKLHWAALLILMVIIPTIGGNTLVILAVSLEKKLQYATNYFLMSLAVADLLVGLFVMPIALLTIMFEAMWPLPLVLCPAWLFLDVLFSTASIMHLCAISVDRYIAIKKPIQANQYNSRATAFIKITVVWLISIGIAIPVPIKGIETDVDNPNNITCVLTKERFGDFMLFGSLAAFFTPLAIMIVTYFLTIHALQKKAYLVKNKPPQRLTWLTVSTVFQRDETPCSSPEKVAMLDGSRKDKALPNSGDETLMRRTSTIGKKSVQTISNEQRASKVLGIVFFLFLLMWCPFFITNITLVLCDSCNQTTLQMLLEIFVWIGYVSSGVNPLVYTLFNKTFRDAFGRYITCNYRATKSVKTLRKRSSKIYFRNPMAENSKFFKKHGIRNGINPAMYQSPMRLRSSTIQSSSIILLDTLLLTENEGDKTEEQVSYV
pKi: −log10 of the molar value.
test_readout: pKi

# annotated cases, reported pKi shown
smiles_notation: COc1ccc(CCN(CCCc2cccc(F)c2)CCc2ccc3c(c2)OCO3)cc1OC
pKi: 7.74
//
smiles_notation: COc1ccc(CCN(CCCc2ccccc2F)CCc2ccc3c(c2)OCO3)cc1OC
pKi: 8.77
//
smiles_notation: COc1ccc(CCN(CCCc2ccc(Br)cc2)CCc2ccc3c(c2)OCO3)cc1OC
pKi: 7.35
//
smiles_notation: COc1ccc(CCN(CCCc2cccc(Br)c2)CCc2ccc3c(c2)OCO3)cc1OC
pKi: 7.85
//
smiles_notation: COc1ccc(CCN(CCCc2cccc(I)c2)CCc2ccc3c(c2)OCO3)cc1OC
pKi: 7.74

a = COc1ccc(CCN(CCCc2cccc(Cl)c2)CCc2ccc3c(c2)OCO3)cc1OC
b = COc1ccc(CCN(CCCc2ccc(Cl)cc2)CCc2ccc3c(c2)OCO3)cc1OC
c = COc1ccc(CCN(CCCc2ccccc2Br)CCc2ccc3c(c2)OCO3)cc1OC
Prompt line: Hey, can you sort those molecules up there by pKi, smallest first? Form field (ranking): labels in requested order.
Response line: b, a, c
(b: 7.27, a: 7.77, c: 8.47)

---

- system: 5-hydroxytryptamine receptor 2B (Homo sapiens, UniProt P41595)
pIC50: −log10 of the molar value.
test_readout: pIC50

1 = COc1ccc(CCN(CCCc2ccccc2Br)CCc2ccc3c(c2)OCO3)cc1OC
2 = COc1ccc(CCN(CCCc2ccccc2Cl)CCc2ccc3c(c2)OCO3)cc1OC
Prompt line: Decide: 1 or 2 , by lowest recorded pIC50. // output: label of the selected item
Response line: 1
(1: 6.49, 2: 7.00)

---

Target sequence: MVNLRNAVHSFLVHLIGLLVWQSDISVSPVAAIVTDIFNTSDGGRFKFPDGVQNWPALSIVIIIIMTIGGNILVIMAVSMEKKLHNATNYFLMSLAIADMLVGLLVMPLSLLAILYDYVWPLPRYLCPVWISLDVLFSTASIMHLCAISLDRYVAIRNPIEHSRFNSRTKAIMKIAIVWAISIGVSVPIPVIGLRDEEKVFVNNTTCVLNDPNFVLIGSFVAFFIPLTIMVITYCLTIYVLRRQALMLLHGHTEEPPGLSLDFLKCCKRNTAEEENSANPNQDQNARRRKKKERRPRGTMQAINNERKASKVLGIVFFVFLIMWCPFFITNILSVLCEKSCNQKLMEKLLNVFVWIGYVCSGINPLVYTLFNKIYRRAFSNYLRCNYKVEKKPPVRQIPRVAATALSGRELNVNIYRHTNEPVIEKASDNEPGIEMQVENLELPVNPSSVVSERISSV
pKi: −log10 of the molar value.
test_readout: pKi

smiles_notation: COc1ccc(CCN(CCCc2ccc(I)cc2)CCc2ccc3c(c2)OCO3)cc1OC
pKi: 6.65

P = COc1ccc(CCN(CCCc2ccccc2I)CCc2ccc3c(c2)OCO3)cc1OC
Q = COc1ccc(CCN(CCCc2cccc(Cl)c2)CCc2ccc3c(c2)OCO3)cc1OC
Prompt line: Hi, I'm comparing P with Q and wondering which one has the bigger number for pKi. Any idea? // output: label of the selected item
Response line: P
(P: 7.17, Q: 6.69)
